Data credit: patent US20240141072A1

Tgt: T1, biotinylated human DLL3 protein expressed as a human IgG1 fusion protein (human, UniProt Q9NYJ7 27-492, limits assumed, biotinylated)
T1 sequence: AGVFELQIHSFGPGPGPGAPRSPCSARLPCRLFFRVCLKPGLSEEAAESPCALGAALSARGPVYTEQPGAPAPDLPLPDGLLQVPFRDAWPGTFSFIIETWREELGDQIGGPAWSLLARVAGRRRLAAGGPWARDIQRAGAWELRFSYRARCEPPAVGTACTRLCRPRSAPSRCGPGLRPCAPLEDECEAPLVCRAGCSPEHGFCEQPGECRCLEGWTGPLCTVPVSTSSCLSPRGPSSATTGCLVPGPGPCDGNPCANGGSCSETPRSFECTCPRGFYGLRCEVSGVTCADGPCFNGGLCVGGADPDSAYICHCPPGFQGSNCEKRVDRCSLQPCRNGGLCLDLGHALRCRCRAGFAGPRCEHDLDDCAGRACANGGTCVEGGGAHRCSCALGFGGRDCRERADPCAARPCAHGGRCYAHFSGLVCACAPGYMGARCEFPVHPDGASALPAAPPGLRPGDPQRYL
Run description: Octet BLI, single 50 nM
Protocol: Using the conditioned medium with known concentrations of the anti-DLL3 trispecific proteins, the binding affinities of the anti-DLL3 trispecific proteins toward human DLL3 protein were measured using a method where biotinylated version of human DLL3 protein were expressed as a human IgG1 fusion protein, and the binding affinity measurement was carried out in an Octet instrument with streptavidin tips.
Metric: pKd
Friendly reminder that pKd comes from taking -log10 of the concentration in mol/L.

Quick one: pKd of 4A05 anti-DLL3 trispecific protein (other, not shown: linker 1808, anti-albumin sdAb, linker 1808, anti-CD3 fragment, His6 1819) EVQLVESGGGLVQPGGSLTLSCAASGSSVSFLSLAWYRQAPGKKRELVAGISADGSTDYIDSVKGRFTISRDNAKNSVYLQMNSLRAEDTAVYYCYAYRWKTRRTYWGQGTLVTVSS ?
8.03

Moving on to the next binder: 1G01 anti-DLL3 trispecific protein (other, not shown: linker 1808, anti-albumin sdAb, linker 1808, anti-CD3 fragment, His6 1819) EVQLVESGGGLVQPGGSLTLSCVASGSTSSINAMAWYRRAPGKQRELVAGISSDGSKVYAESVKGRFTISRDNAKNSVYLQMNSLRAEDTAVYYCYYFRTVSGASMRYWGQGTLVTVSS
8.18

1B08 anti-DLL3 trispecific protein (other, not shown: linker 1808, anti-albumin sdAb, linker 1808, anti-CD3 fragment, His6 1819) EVQLVESGGGLVQPGGSLTLSCVASGTTSSINAMGWYRRAPGKQRELVAGISSDGSKVYVDSVKGRFTISRDNAKNSVYLQMNSLRAEDTAVYYCYYFRFVSGSSMRYWGQGTLVTVSS ?
7.92

Then 2D011 anti-DLL3 trispecific protein (other, not shown: linker 1808, anti-albumin sdAb, linker 1808, anti-CD3 fragment, His6 1819) EVQLVESGGGLVQPGGSLTLSCVASGTTSSINAMGWYRRAPGKQRELVAGISSDGSKVYADSVKGRFTISRDNAKNSVYLQMNSLRAEDTAVYYCYYFRTVWGSSMRYWGQGTLVTVSS ?
8.27

// repeat for 2H08 anti-DLL3 trispecific protein (other, not shown: linker 1808, anti-albumin sdAb, linker 1808, anti-CD3 fragment, His6 1819) EVQLVESGGGLVQPGGSLTLSCVASGSTSSINAMGWYRRAPGKQRELAAGISKDGSKVYADSAKGRFTISRDNAKNSVYLQMNSLRAEDTAVYYCYYFRTVSGSSSRYWGQGTLVTVSS and report
7.74

Could you do the same for 2H06 anti-DLL3 trispecific protein (other, not shown: linker 1808, anti-albumin sdAb, linker 1808, anti-CD3 fragment, His6 1819) EVQLVESGGGLVQPGGSLTLSCVASGSTSTINAMGWYRRAPGKQRELVAGISSDGSKVYADSVKGRFTISRDNAKNSVYLQMNSLRAEDTAVYYCYYFRTASGSSMRYWGQGTLVTVSS , please?
8.10

Another: 2B010 anti-DLL3 trispecific protein (other, not shown: linker 1808, anti-albumin sdAb, linker 1808, anti-CD3 fragment, His6 1819) EVQLVESGGGLVQPGGSLTLSCVASGSTSSRNAMGWYRRAPGKQRELVAGISSDGSKLYLDSVKGRFTISRDNAKNSVYLQMNSLRAEDTAVYYCYYFRTVLGSSMRYWGQGTLVTVSS
8.00

And the next one, 2B03 anti-DLL3 trispecific protein (other, not shown: linker 1808, anti-albumin sdAb, linker 1808, anti-CD3 fragment, His6 1819) EVQLVESGGGLVQPGGSLTLSCVASGSTSSINAMGWYRRAPGKQRELVAGISSDGSLVYADSVKGRFTISRDNAKNSVYLQMNSLRAEDTAVYYCYYFTTVSGSSMRYWGQGTLVTVSS ?
8.12

What do you have for 3D010 anti-DLL3 trispecific protein (other, not shown: linker 1808, anti-albumin sdAb, linker 1808, anti-CD3 fragment, His6 1819) EVQLVESGGGLVQPGGSLTLSCAASGSSKSFLSMAWYRQAPGKKRELVAGISADGSTSYIDSVKGRFTISRDNAKNSVYLQMNSLRAEDTAVYYCYAYRWTTRYTYWGQGTLVTVSS ?
7.85

Cool, now 1B02 anti-DLL3 trispecific protein (other, not shown: linker 1808, anti-albumin sdAb, linker 1808, anti-CD3 fragment, His6 1819) EVQLVESGGGLVQPGGSLTLSCVASGSTSSINAMGWYRRAPGKQRELVAGISSDGSKIYADSVKGRFTISRDNAKNSVYLQMNSLRAEDTAVYYCYYFRTVSGSSMRYWGQGTLVTVSS
7.96

Repeat for the following binder: 4C011 anti-DLL3 trispecific protein (other, not shown: linker 1808, anti-albumin sdAb, linker 1808, anti-CD3 fragment, His6 1819) EVQLVESGGGLVQPGGSLTLSCAASGSRVSFLSMAWYRQAPGKKRELVAGISADGSTVYIDSVKGRFTISRDNAKNSVYLQMNSLRAEDTAVYYCYAYRWTRRYTYWGQGTLVTVSS
8.22

What about this binder? 2H03 anti-DLL3 trispecific protein (other, not shown: linker 1808, anti-albumin sdAb, linker 1808, anti-CD3 fragment, His6 1819) EVQLVESGGGLVQPGGSLTLSCVASGSTSSINAMAWYRRAPGKQRELVAGISSDGSKVYADSVKGRFTISRDNAKNSVYLQMNSLRAEDTAVYYCYYFRQVSGSSMRYWGQGTLVTVSS
8.28

Same read-out for 3G08 anti-DLL3 trispecific protein (other, not shown: linker 1808, anti-albumin sdAb, linker 1808, anti-CD3 fragment, His6 1819) EVQLVESGGGLVQPGGSLTLSCAASGSRVSFLSMAWYRQAPGKKRELVAGISKDGSTDYIDSVKGRFTISRDNAKNSVYLQMNSLRAEDTAVYYCYAYRWTTRVTYWGQGTLVTVSS ?
7.92

How about this binder: 3D011 anti-DLL3 trispecific protein (other, not shown: linker 1808, anti-albumin sdAb, linker 1808, anti-CD3 fragment, His6 1819) EVQLVESGGGLVQPGGSLTLSCAASGSSVSRLSMAWYRQAPGKKRELVAGISADGSRDYIDSVKGRFTISRDNAKNSVYLQMNSLRAEDTAVYYCYAYRWTTRYKYWGQGTLVTVSS
8.28

Item: 3A05 anti-DLL3 trispecific protein (other, not shown: linker 1808, anti-albumin sdAb, linker 1808, anti-CD3 fragment, His6 1819) EVQLVESGGGLVQPGGSLTLSCAASGSSVSFLSMAWYRQAPGKKRELVAGISEAGSTDYIDSVKGRFTISRDNAKNSVYLQMNSLRAEDTAVYYCYAYRWRTRYTYWGQGTLVTVSS
7.82
